The reader will find reported TGI values listed item by item below.
System: UO-31 renal
Test: NCI tumour cell line growth inhibition, 48 h

Sample answers from the record:
[[record]]
compound = "CC(C)(C)c1c(C(C)(C)C)c(=O)c1=O"
measured_target = "UO-31 renal"
metric_name = "TGI"
reported_value = "> 100 µM"

[[record]]
compound = "Cn1cc(CO)c2ccccc21"
measured_target = "UO-31 renal"
metric_name = "TGI"
reported_value = "> 100 µM"

[[record]]
compound = "COc1ccc(-c2cc(/C=C/C(=O)c3cc(OC)c(OC)c(OC)c3)[nH]n2)cc1OC"
measured_target = "UO-31 renal"
metric_name = "TGI"
reported_value = "2.59 µM"

[[record]]
compound = "CC12OC(C(=O)C13CCC3)C1C(=O)c3ccccc3C(=O)C12 (stereo unspecified)"
measured_target = "UO-31 renal"
metric_name = "TGI"
reported_value = "> 100 µM"

[[record]]
compound = "CC1(C)C2CCC13C(=O)C1OC3(C2)C2C(=O)c3c(O)cccc3C(=O)C12 (stereo unspecified)"
measured_target = "UO-31 renal"
metric_name = "TGI"
reported_value = "18.5 µM"


TGI reading for C=C1CC(Cn2cc(Br)c(=O)[nH]c2=O)(c2ccc(-c3ccccc3)cc2)OC1=O (stereo unspecified) : 3.93 µM

// field: TGI; key: "Cc1cn([C@H]2[C@@H](CO)C[C@H]2O)c(=O)[nH]c1=O" ; value = > 100 µM

Looking up "CC(=O)Nc1ccc(C(=O)N2N=C(C)/C(=C/c3ccc(O)cc3)C2=O)cc1" , I found its TGI recorded as > 100 µM

Short answer for "C=CC(=O)Nc1cccc(Nc2nc(Nc3ccc(OCCOC(F)F)cc3)ncc2F)c1" : TGI was 9.56 µM

The compound listed as "COc1cc(O)c(C(C)=O)c(O)c1" shows TGI equal to > 100 µM

Entry "Cc1cc(NC(=O)NC(=O)c2ccccc2N(C)C)ccc1Oc1ncc(Br)cn1" , TGI reported as > 63.1 µM
